# testSystem: P2X7 (UniProt Q99572)
# experimentalProtocol: P2X7 pKi of Table 1
# Format: cell-based
# Experimental: Intracellular Calcium Flux (FLIPR) Assay Compound and Reagent Preparation Stock solutions of compounds were prepared from powders as a 10 mM DMSO stock solution. These solutions were stored at RT during the two week period of these experiments to prevent freeze-thaw of the DMSO stocks. The DMSO stocks were added to the appropriate assay buffer at a concentration of 10 μM, and then diluted serially to the final concentrations that were tested. […]
measure: pKi

compound=O=C1C[C@@H](c2ccc(F)cc2)C(C(=O)Nc2cc(OCCO)c(Cl)cc2Br)=CN1 measure=pKi measurement=7.063
compound=COc1cc(C)c(NC(=O)C2=CNC(=O)C[C@@H]2c2ccc(Cl)cc2)cc1OC measure=pKi measurement=6.38
compound=COc1ccc(NC(=O)C2=CNC(=O)C[C@H]2c2ccc(F)cc2)c(C)c1 measure=pKi measurement=6.5
compound="O=C1CC(c2cccc(F)c2)C(C(=O)Nc2cccc3c2CCCC3)=CN1 (centres unmarked)" measure=pKi measurement=6.83
compound="O=C1CC(c2ccc(F)cc2)C(C(=O)Nc2cc(OCCO)c(Cl)cc2Br)=CN1 (centres unmarked)" measure=pKi measurement=6.7
compound=CCOC(=O)Cc1ccc(C)c(NC(=O)C2=CNC(=O)C[C@H]2c2ccc(F)cc2)c1 measure=pKi measurement=6.55
compound=Cc1ccc(C(C)C)cc1NC(=O)C1=CNC(=O)C[C@H]1c1cccc(F)c1 measure=pKi measurement=7.01
compound=COC[C@@H](O)COc1cc(NC(=O)C2=CNC(=O)C[C@H]2c2ccc(F)cc2)c(C)cc1Cl measure=pKi measurement=6.49
compound=Cc1ccc(OC(F)(F)F)cc1NC(=O)C1=CNC(=O)C[C@H]1c1ccc(F)cc1 measure=pKi measurement=6.755
compound=O=C1C[C@@H](c2ccc(F)cc2)C(C(=O)NCc2ccccc2Cl)=CN1 measure=pKi measurement=6.16
compound="CCN(CC)S(=O)(=O)c1ccc(Cl)c(NC(=O)C2=CNC(=O)CC2c2cccc(F)c2)c1 (centres unmarked)" measure=pKi measurement=6.02

---

# testSystem: P2X7 (UniProt Q99572)
# experimentalProtocol: P2X7 pKi of Table 1
# Assay type: cell-based
measure: pKi

molecule="Cc1cc(Cl)c(OCC(C)O)cc1NC(=O)C1=CNC(=O)C[C@H]1c1cccc(F)c1 (some centres unmarked) [Compound 116]" measure=pKi measurement=7.21
molecule="Cc1cc(Cl)c(OCCO)cc1NC(=O)C1=CNC(=O)CC1c1cccc(F)c1 (centres unmarked) [Compound 62]" measure=pKi measurement=7.595
molecule="O=C1CC(c2cccc(F)c2)C(C(=O)Nc2cc(Cl)ccc2OC(F)F)=CN1 (centres unmarked) [Compound 27]" measure=pKi measurement=5.18
molecule="Cc1ccc([C@@H](C)O)cc1NC(=O)C1=CNC(=O)C[C@H]1c1ccc(F)cc1 [Compound 89]" measure=pKi measurement=7.443
molecule="COc1cc(C)c(NC(=O)C2=CNC(=O)CC2c2cccc(F)c2)cc1OC (centres unmarked) [Compound 24]" measure=pKi measurement=7.69
molecule="Cc1cc(Cl)c(OCC(=O)N(C)C)cc1NC(=O)C1=CNC(=O)C[C@H]1c1ccc(F)cc1 [Compound 130]" measure=pKi measurement=7.2767
molecule="COc1cc(Br)c(NC(=O)C2=CN(C)C(=O)CC2c2ccc(F)cc2)cc1OC (centres unmarked) [Compound 31]" measure=pKi measurement=6.525
molecule="Cc1cc(Cl)c(CO)cc1NC(=O)C1=CNC(=O)C[C@H]1c1ccc(F)cc1 [Compound 104]" measure=pKi measurement=7.21
molecule="COc1cc(Br)c(NC(=O)C2=CNC(=O)CC2c2ccc(F)cc2)cc1OC (centres unmarked) [Compound 7]" measure=pKi measurement=7.463
molecule="COc1cc(Br)c(NC(=O)C2=CNC(=O)CC2c2ccccc2)cc1OC (centres unmarked) [Compound 1]" measure=pKi measurement=7.4925
molecule="Cc1c(CCO)cccc1NC(=O)C1=CNC(=O)C[C@H]1c1ccc(F)cc1 [Compound 100]" measure=pKi measurement=6.803
